Origin of values: ChEMBL document CHEMBL1144591

System: A549
Test Protocol: Cytotoxicity against human A549 cells after 48 hrs by MTT colorimetric assay
Type: functional, cell-based
Measurement Setup: A549, 48 h

| Structure Smiles | Limit Sign | IC50 [µg/mL] |
| --- | --- | --- |
| C=C1[C@@H]2CC[C@H]3[C@@]45CO[C@@](O)([C@@H](O)[C@@H]4C(C)(C)C=CC5=O)[C@]3(C2)[C@@H]1O | = | 15.3 |
| C=C1C(=O)[C@]23C[C@H]1CC[C@H]2[C@]12CO[C@@H](CC1=O)C(C)(C)[C@H]2[C@H](OC(=O)CBr)C3=O | = | 10.9 |
| C=C1C(=O)[C@]23C[C@H]1CC[C@H]2[C@@]12CO[C@@]3(O)[C@@H](OC(=O)CBr)[C@@H]1C(C)(C)C=CC2=O | = | 4.86 |
| C=C1C(=O)[C@]23C[C@H]1CC[C@H]2[C@@]12CO[C@@]3(OC(C)=O)[C@@H](O)[C@@H]1C(C)(C)C=CC2=O | = | 38.9 |
| C=C1C(=O)[C@]23C[C@H]1CC[C@H]2[C@@]12CO[C@@]3(O)[C@@H](OC(C)=O)[C@@H]1C(C)(C)C=CC2=O | = | 31 |
| C=C1C(=O)[C@]23C[C@H]1CC[C@H]2[C@]1(COC3=O)C(=O)C=CC(C)(C)[C@H]1C(=O)O | > | 100 |
